System: BDF1 mice, B16 melanoma ip, median survival T/C
Assay: NCI In Vivo Anticancer Drug Screen. Data for tumor model B16 Melanoma (intraperitoneal) in B6D2F1 (BDF1) mice
Details: endpoint: median survival time; dose: 6.25 mg/kg/injection; schedule: Q01DX009 (ip); vehicle: saline; higher = longer survival
Description: The antitumor activity of compounds was measured in mice bearing transplantable tumors. Survival or tumor size were measured and the results are expressed as the measurement made in the treated group (T) divided by the measurement made in the vehicle treated control group (C). The tumor model used in this assay is B16 Melanoma (intraperitoneal) in B6D2F1 (BDF1) mice
Inconclusive results and toxic doses are left out.
PARAMETER MEASURED: T/C

>>> print(df.to_string())
                                   compound                       experimental_system       measurement
0  CC(=O)OCC1OC(n2cnc3c(=S)nc(N)[nH]c32)C(OC(C)=O)C1OC(C)=O (stereo not drawn)  BDF1 mice, B16 melanoma ip, median survival T/C  118 % of control
1                              O=NNc1ccccn1  BDF1 mice, B16 melanoma ip, median survival T/C  119 % of control
2       CN(C)CC/C=C1\c2ccccc2CN(C)c2ccccc21  BDF1 mice, B16 melanoma ip, median survival T/C  102 % of control
